Tested on: LOX IMVI melanoma
experimental_details: NCI tumour cell line growth inhibition, 48 h
measurement_kind: log10(TGI) (log10 of the value in µM)

compound="CCN(CC)CC(O)c1cc(-c2ccc(Cl)cc2)nc2cc(Cl)ccc12 (stereo not given)" measurement_kind=log10(TGI) readout_number=0.40
compound="CC(=O)CC12NC(=O)N(C)N=C1N(C)C(=O)N(C)C2=O (stereo not given)" measurement_kind=log10(TGI) readout_number=1.61
compound=CC(=O)N1CCN(CCCCN2c3ccccc3Sc3cc(N=[N+]=[N-])ccc32)CC1 measurement_kind=log10(TGI) readout_number=1.49
compound=CN1C(=O)[C@@H]2[C@@H]3c4ccccc4N[C@@H]3c3[nH]c4ccccc4c3[C@@H]2C1=O measurement_kind=log10(TGI) readout_number=1.67
compound=Cc1cc2nc(CC(C(F)(F)F)C(F)(F)F)oc2cc1C measurement_kind=log10(TGI) readout_number=0.16
compound=O=C1C(c2c(O)[nH]c3ccc(I)cc23)=Nc2ccccc21 measurement_kind=log10(TGI) readout_number=1.54
compound="NC(CSC1(c2ccc(Cl)cc2)c2ccccc2-c2ccccc21)C(=O)O (stereo not given)" measurement_kind=log10(TGI) readout_number=1.48
compound=O=C(Nc1ccc(Cl)cc1)c1cc2ccccc2cc1OP(=O)(O)O measurement_kind=log10(TGI) readout_number=1.24
compound=COc1ccc2c(c1)C(=O)c1c-2c(OCCN2CCCCC2)nc2ccc(OC)cc12 measurement_kind=log10(TGI) readout_number=0.24
compound=O=Cc1cn(S(=O)(=O)c2ccccc2)c2ccccc12 measurement_kind=log10(TGI) readout_number=1.64
compound="C[C@]12CCC(=O)C=C1CC[C@@H]1C2CC[C@@]2(C)C1CC[C@@H]2OC(=O)C12OC1CCC2=O (stereo not given in full)" measurement_kind=log10(TGI) readout_number=1.49
